Recorded values, source patent US11090304B2.

# assayed_system: GDP-bound KRAS protein (aa 1-169), containing both G12C and C118A amino acid substitutions (Homo sapiens, UniProt P01116, C118A/G12C)
# Sequence (P01116 1-169 isoform P01116-2 G12C/C118A): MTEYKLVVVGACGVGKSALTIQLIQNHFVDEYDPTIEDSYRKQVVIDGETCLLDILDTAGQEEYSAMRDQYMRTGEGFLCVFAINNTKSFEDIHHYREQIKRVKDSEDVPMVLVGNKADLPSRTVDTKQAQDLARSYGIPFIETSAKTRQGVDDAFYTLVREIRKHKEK
# assay_procedure: Coupled nucleotide exchange assay (SOS-mediated, AlphaScreen)
# Format: biochemical
# condition_parameters: 5 min compound pre-incubation
Listed below: Coupled exchange IC50 (5 min) values for each entry.

# Coupled exchange IC50 (5 min) (compound: C=CC(=O)N1CCN(c2nc(=O)n(-c3ccccc3C(C)C)c3nc(Cl)c(Cl)cc23)[C@@H](C)C1 (atropisomer, axis not shown; (P)) [Example 61-1-2] ) is 20.6 | nda μM

Sure, the documented Coupled exchange IC50 (5 min) for `C=CC(=O)N1CCN(c2nc(=O)n(-c3ccccc3C(C)C)c3nc(-c4ccccc4OC(F)F)c(Cl)cc23)[C@@H](C)C1` is 0.332 | nda μM

For reference, reported Coupled exchange IC50 (5 min) for C=CC(=O)N1CCN(c2nc(=O)n(-c3c(F)cccc3C(C)C)c3nc(-c4ccccc4F)c(F)cc23)[C@@H](C)C1 [Example 59-3] stands at 0.521 | nda μM

Just so you know, measured Coupled exchange IC50 (5 min) for `C=CC(=O)N1CCN(c2nc(=O)n(-c3c(CC)cccc3CC)c3nc(-c4ccccc4F)c(Cl)cc23)[C@@H](C)C1` came out at 0.216 µM

Coupled exchange IC50 (5 min) reported for this compound C=CC(=O)N1CCN(c2nc(=O)n(-c3c(C)ncnc3C(C)C)c3nc(-c4cc(C)ccc4F)c(Cl)cc23)[C@@H](C)C1 (single isomer, unassigned) [Example 55-40-2] : 0.078 | nda μM

Record summary for C=CC(=O)N1CCN(c2nc(=O)n(-c3ccccc3C(C)C)c3nc(-c4c(F)cccc4C#N)c(Cl)cc23)[C@@H](C)C1 [Example 98] : reported Coupled exchange IC50 (5 min) = 0.27 | nda μM

====

In this section we review reported Coupled exchange IC50 (5 min) values for a set of compounds.
# assayed_system: GDP-bound KRAS protein (aa 1-169), containing both G12C and C118A amino acid substitutions (Homo sapiens, UniProt P01116, C118A/G12C)
# assay_procedure: Coupled nucleotide exchange assay (SOS-mediated, AlphaScreen)
# Type: biochemical
# condition_parameters: 5 min compound pre-incubation

Reported Coupled exchange IC50 (5 min) ( C=CC(=O)N1C[C@H](C)N(c2nc(=O)n(-c3c(C)ccnc3C(C)C)c3nc(-c4c(O)cccc4F)c(F)cc23)[C@@H](C)C1 (single isomer, unassigned) [Example 75-3] ) = 0.029 | nda μM

For C=CC(=O)N1CCN(c2nc(=O)n(-c3c(C(N)=O)cccc3C(C)C)c3nc(-c4ccccc4F)c(Cl)cc23)[C@@H](C)C1 (single isomer, unassigned) [Example 142-1] the compound record lists Coupled exchange IC50 (5 min) as 23.9 | nda μM

Quick note, Coupled exchange IC50 (5 min) for C=CC(=O)N1CCN(c2nc(=O)n(-c3c(C)ccnc3C3CC3)c3nc(-c4ccccc4F)c(F)cc23)[C@@H](C)C1 [Example 57-18] landed at 1.73 | nda μM

====

# assayed_system: GDP-bound KRAS protein (aa 1-169), containing both G12C and C118A amino acid substitutions (Homo sapiens, UniProt P01116, C118A/G12C)
# assay_procedure: Coupled nucleotide exchange assay (SOS-mediated, AlphaScreen)
# condition_parameters: read-out: Coupled exchange IC50 (5 min); 5 min compound pre-incubation
pIC50: −log10 of the molar value.
Please enter Y where pIC50 is greater than or equal to 6, and N where it is lower.

Worked examples follow.
C=CC(=O)N1CCN(c2nc(=O)n(-c3ccccc3C(C)C)c3nc(-c4ccc[nH]c4=O)c(Cl)cc23)[C@@H](C)C1; N
C=CC(=O)N1CCN(c2nc(=O)n(-c3c(CN(C)C)ccnc3C(C)C)c3nc(-c4ccccc4F)c(Cl)cc23)[C@@H](C)C1 (atropisomer, axis not shown; (M)); Y
C=CC(=O)N1CCN(c2nc(=O)n(-c3c(C4CC4)ncnc3C3CC3)c3nc(-c4c(O)cccc4F)c(Cl)cc23)[C@@H](C)C1; Y

Data request: Please indicate if the recorded pIC50 for C=CC(=O)N1CCN(c2nc(=O)n(-c3c(C)ccnc3C(C)C)c3nc(-c4ccccc4F)c(Cl)cc23)C[C@H]1C (atropisomer, axis not shown; (M)) meets or exceeds 6.
Data returned: Y
